- assay_comment: Protein binding in human serum assessed as unbound fraction
- Type: ADME, cell-free
- condition_notes: read-out: PB
measure_name: fraction unbound

# compound, fraction unbound
measured = [
    ("CCO[C@H]1CN([C@H]2CC[C@@](O)(c3ccc4c(c3)OCO4)CC2)C[C@@H]1NC(=O)CNC(=O)c1cccc(C(F)(F)F)c1", 0.24),
]

Lookup: fraction unbound for O=C(CNC(=O)c1cccc(C(F)(F)F)c1)N[C@H]1CN([C@H]2CC[C@@H](c3ccccc3)CC2)C[C@@H]1O ?
Found: 0.026

Lookup: Then what about the molecule CCO[C@H]1CN([C@H]2CC[C@@H](c3ccccc3)CC2)C[C@@H]1NC(=O)CNC(=O)c1cccc(C(F)(F)F)c1 ?
Found: < 0.005

Lookup: Then what about the molecule CCO[C@H]1CN([C@H]2CC[C@@](O)(c3ccccc3)CC2)C[C@@H]1NC(=O)CNC(=O)c1cccc(C(F)(F)F)c1 ?
Found: 0.26
